Recorded values, source PubChem BioAssay (NCI).

test system: SW-620 colon; assay: NCI tumour cell line growth inhibition, 48 h
I'd be grateful if you could share measured TGI for these entries.

Entry O=C(/C=C\c1ccccc1)N1CCc2ccccc2C1 , TGI reported as > 100 µM

// sample CC1(C)CCc2c(c(N=Nc3ccc(F)cc3)c3ccccc3c2O)O1 , its TGI was > 100 µM

For Oc1cc(Br)cc2cc(Cl)cnc12 the compound record lists TGI as > 46.2 µM

For O=C(CCC(=O)C1CCC/C1=N/O)Nc1ccc(Cl)cc1 (stereo not drawn) the compound record lists TGI as > 100 µM

Briefly, TGI measured for Cc1cn(S(=O)(=O)c2ccccc2)c2c(OCc3ccccc3)cc(NS(C)(=O)=O)cc12 : > 100 µM

The reported TGI of the compound CCN(CC)c1ccc(/C=C/C=C2\NC(=O)NC2=O)cc1 was > 100 µM

The reported TGI of the compound COc1ccc(N2NC(c3ccccc3)(c3ccccc3)C(C)C2=O)cc1 (stereo not drawn) was > 100 µM

// sample NC(CSSCC(N)Cc1ccccc1)Cc1ccccc1 (stereo not drawn) , its TGI was > 100 µM

* * *

test system: SNB-75 CNS; assay: NCI tumour cell line growth inhibition, 48 h; in the data active means GI50 below about 0.43 µM; inactive means the rest
Valid outcomes are listed here; reply with one: active, inactive

Check the results log: what was the call for CC[C@H](C)C(=O)O[C@H]1C[C@H](O)C=C2C=C[C@H](C)[C@H](CC[C@@H](O)C[C@@H](O)CC(=O)O)[C@H]21 ?
inactive

Could you please tell me the result logged for COc1ccc(-c2nn(-c3ccc(NC(=O)Nc4ccc(Cl)c(C(F)(F)F)c4)cc3)cc2-c2ccncc2)cc1Cl in this assay?
inactive

Test call for this molecule, please: O=C(NC(=S)Nc1cc(Cl)ccc1O)c1cccc(Br)c1
inactive

Outcome logged for O=c1oc2c(C(F)(F)F)cccc2cc1-c1csc(Nc2ccc(OCCF)cc2)n1 in this assay:
active

// outcome(item) with item = O=c1ccc2nc(-c3ccccn3)nn(-c3ccccc3)c-2c1
inactive

# lookup: test call for Cn1cc(C2=C(N3CCOCC3)C(=O)NC2=O)c2ccccc21
inactive

Test call, this molecule: O=C(CCc1ccc(O)cc1)N/N=C/c1cc(Br)ccc1O
inactive

* * *

system: MCF7 breast; experiment: NCI tumour cell line growth inhibition, 48 h
Kindly state TGI for each of the entries shown.

Item: COc1cc(CS(=O)c2ccc(O)cc2)cc(OC)c1OC (configuration not stated) | TGI: > 100 µM

According to the records, this compound Cc1ccc(Sc2cc3c(oc2=O)-c2ccccc2OC3O)cc1 (configuration not stated) displays TGI of > 100 µM

// recorded TGI for COC(=O)c1c(O)ccc2c1c1c(n2Cc2ccccc2)C(=O)c2ccccc2C1 : > 100 µM

Entry N#CC1C=Cc2c(ccc3ccccc23)N1C(=O)c1ccccc1 (configuration not stated) , TGI reported as > 100 µM

Memo: N#CC(C#N)=C1C(=O)NC(N)=C1C#N , reported TGI: > 100 µM

TGI for O=c1oc2c(C(F)(F)F)cccc2cc1-c1csc(Nc2ccc(OCCF)cc2)n1 is > 37.6 µM

Entry under test: Cc1cccc(Cc2cnc(NC(=O)CCc3ccc(C)o3)s2)c1 . Its TGI was > 100 µM

Input CCC[C@@H]1C(=O)N=C(N)N1C(=O)OCc1ccccc1 . Output TGI: > 100 µM

// field: TGI; key: C=C(c1ccccc1)c1ccccc1-c1cc(-c2ccccc2)cc(-c2ccccc2)n1 ; value = > 100 µM

response.value for CCOc1ccc2c(c1)c(=O)c1c(NCCN(CC)CC)ccc3nnn2c31 (field: TGI) = > 68.7 µM

response.value for COc1ccc(Cn2cc3c(c2-c2cc(OC)c(OC)c(OC)c2)CCc2cnoc2-3)cc1 (field: TGI) = > 100 µM

For record Cc1cc(Nc2cc(N)ncn2)c(=O)n2c1C(=O)NC21CCCCC1 the listed TGI is > 100 µM
